Target: EGFR L858R/T790M/C797S (Homo sapiens, UniProt P00533, C797S/L858R/T790M)
Sequence (P00533 25-1210 T790M/C797S/L858R): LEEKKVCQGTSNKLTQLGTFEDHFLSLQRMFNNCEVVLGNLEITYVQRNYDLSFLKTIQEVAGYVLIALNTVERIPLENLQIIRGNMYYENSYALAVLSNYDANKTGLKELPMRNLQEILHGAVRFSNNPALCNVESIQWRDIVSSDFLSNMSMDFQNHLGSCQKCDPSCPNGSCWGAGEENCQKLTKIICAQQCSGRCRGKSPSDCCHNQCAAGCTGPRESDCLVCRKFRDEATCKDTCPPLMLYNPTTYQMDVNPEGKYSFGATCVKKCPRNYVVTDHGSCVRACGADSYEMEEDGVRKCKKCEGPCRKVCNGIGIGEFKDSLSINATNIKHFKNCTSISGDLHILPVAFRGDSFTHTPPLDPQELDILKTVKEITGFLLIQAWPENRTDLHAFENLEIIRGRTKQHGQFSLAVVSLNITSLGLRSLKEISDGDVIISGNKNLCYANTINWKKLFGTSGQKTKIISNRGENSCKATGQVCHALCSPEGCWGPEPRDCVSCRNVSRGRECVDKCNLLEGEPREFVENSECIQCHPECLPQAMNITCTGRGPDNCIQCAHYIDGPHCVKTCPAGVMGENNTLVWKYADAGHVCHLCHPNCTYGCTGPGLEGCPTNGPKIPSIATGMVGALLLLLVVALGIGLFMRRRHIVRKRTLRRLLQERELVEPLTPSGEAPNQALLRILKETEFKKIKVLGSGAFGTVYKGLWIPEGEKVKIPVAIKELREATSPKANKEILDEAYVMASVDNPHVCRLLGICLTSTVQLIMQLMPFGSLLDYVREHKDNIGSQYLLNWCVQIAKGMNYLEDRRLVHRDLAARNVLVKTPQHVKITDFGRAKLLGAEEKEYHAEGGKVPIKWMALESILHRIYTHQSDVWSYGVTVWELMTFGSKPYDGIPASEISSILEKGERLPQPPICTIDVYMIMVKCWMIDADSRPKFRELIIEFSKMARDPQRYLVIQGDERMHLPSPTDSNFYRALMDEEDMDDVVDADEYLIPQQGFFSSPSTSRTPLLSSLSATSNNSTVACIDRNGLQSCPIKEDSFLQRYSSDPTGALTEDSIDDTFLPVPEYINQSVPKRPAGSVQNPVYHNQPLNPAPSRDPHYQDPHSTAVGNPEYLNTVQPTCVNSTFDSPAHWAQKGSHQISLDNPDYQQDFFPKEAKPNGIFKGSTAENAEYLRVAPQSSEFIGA
Assay: Biochemical EGFR kinase assay (Lance Ultra TR-FRET), triple mutant L858R/T790M/C797S
Conditions: IC50 L858R/T790M/C797S (nM) 100 μM ATP, 100 μM ATP
# Lookup of reported IC50 keyed by entry
assay_readout: IC50 (nM)

1. O=S(=O)(C1CC1)n1cc(-c2nccc(Nc3cc(N[C@H]4CC[C@@H](O)CC4)c(-c4cnn(C(F)F)c4)cn3)n2)cn1    11.4
2. O=S(=O)(C1CC1)n1cc(-c2nccc(Nc3cc(NC[C@H]4CC[C@@H](O)C4)c(-c4ccn(CC(F)(F)F)n4)cn3)n2)cn1    0.6
3. CC1(CNc2cc(Nc3ccnc(-c4cnn(S(=O)(=O)C5CC5)c4)n3)ncc2-c2ccn(C(F)F)n2)CCC(O)CC1 (centres unmarked)    6.4
4. C[C@]1(O)CC[C@@H](Nc2cc(Nc3ccnc(-c4cnn(S(=O)(=O)C5CC5)c4)n3)ncc2-c2csc(N3CCOCC3)n2)CC1    0.9
5. CN(C)C[C@H]1CC[C@@H](Nc2cc(Nc3ccnc(-c4cnn(S(=O)(=O)C5CC5)c4)n3)ncc2-c2ccn(CC(F)(F)F)n2)CC1    0.1
6. O=C1CC[C@]2(CC[C@H](Nc3cc(Nc4ccnc(-c5cnn(S(=O)(=O)C6CC6)c5)n4)ncc3-c3ccn(C(F)F)n3)CC2)N1    0.5
7. O=S(=O)(C1CC1)n1cc(-c2nccc(Nc3cc(N[C@H]4CC[C@@H](CO)CC4)c(-c4ccn(C5CC5)n4)cn3)n2)cn1    0.5
8. CN(C)CCCn1ccc(-c2cnc(Nc3ccnc(-c4cnn(S(=O)(=O)C5CC5)c4)n3)cc2N[C@H]2CC[C@@](C)(O)CC2)n1    0.2
9. C[C@]1(O)CC[C@@H](Nc2cc(Nc3ccnc(-c4cnn(S(=O)(=O)C5CC5)c4)n3)ncc2-c2cn3c(n2)CCC3)CC1    0.3
10. CC(C)(O)[C@H]1CC[C@@H](Nc2cc(Nc3ccnc(-c4cnn(S(=O)(=O)C5CC5)c4)n3)ncc2-c2ccn(C(F)F)n2)CC1    5.7
11. O=S(=O)(C1CC1)n1cc(-c2nccc(Nc3cc(NC[C@H]4C[C@@H](O)C4)c(-c4ccn(C(F)F)n4)cn3)n2)cn1    0.9
12. CC1(O)CCC(Oc2cc(Nc3ccnc(-c4cnn(S(=O)(=O)C5CC5)c4)n3)ncc2-c2ccn(C(F)F)n2)CC1 (centres unmarked)    1.7
13. CN(C)C[C@]1(O)CC[C@@H](Nc2cc(Nc3ccnc(-c4cnn(S(=O)(=O)C5CC5)c4)n3)ncc2-c2ccn(C)n2)CC1    0.5
14. CC(C)Nc1cc(Nc2ccnc(-c3cnn(S(=O)(=O)C4CC4)c3)n2)ncc1-c1csc(C(C)(C)O)n1    7.7
15. O=S(=O)(C1CC1)n1cc(-c2nccc(Nc3cc(NC[C@H]4CC[C@@H](O)CC4)c(-c4ccn(C(F)F)n4)cn3)n2)cn1    2.8
16. O=S(=O)(C1CC1)n1cc(-c2nccc(Nc3cc(N[C@H]4CC[C@@H](NCCF)CC4)c(-c4ccn(C(F)F)n4)cn3)n2)cn1    0.5
17. C[C@]1(O)CC[C@@H](Nc2cc(Nc3ccnc(-c4cnn(S(=O)(=O)C5CC5)c4)n3)ncc2-c2ccn(C3CC3)n2)CC1    0.2
18. CC(C)(CO)CNc1cc(Nc2ccnc(-c3cnn(S(=O)(=O)C4CC4)c3)n2)ncc1-c1csc(C(C)(C)O)n1    7.1
19. Cn1ccc(-c2cnc(Nc3ccnc(-c4cnn(S(=O)(=O)C5CC5)c4)n3)cc2N[C@H]2CCC[C@H](CO)C2)n1    0.4
20. Cn1ccc(-c2cnc(Nc3ccnc(-c4cnn(S(=O)(=O)C5CC5)c4)n3)cc2N[C@H]2CC[C@@H](NCCF)CC2)n1    0.3

----------
Target: EGFR del19/C797S (Homo sapiens, UniProt P00533, C797S/DEL746-750)
Sequence (P00533 with tags, fused parts or gaps DEL746-750/C797S): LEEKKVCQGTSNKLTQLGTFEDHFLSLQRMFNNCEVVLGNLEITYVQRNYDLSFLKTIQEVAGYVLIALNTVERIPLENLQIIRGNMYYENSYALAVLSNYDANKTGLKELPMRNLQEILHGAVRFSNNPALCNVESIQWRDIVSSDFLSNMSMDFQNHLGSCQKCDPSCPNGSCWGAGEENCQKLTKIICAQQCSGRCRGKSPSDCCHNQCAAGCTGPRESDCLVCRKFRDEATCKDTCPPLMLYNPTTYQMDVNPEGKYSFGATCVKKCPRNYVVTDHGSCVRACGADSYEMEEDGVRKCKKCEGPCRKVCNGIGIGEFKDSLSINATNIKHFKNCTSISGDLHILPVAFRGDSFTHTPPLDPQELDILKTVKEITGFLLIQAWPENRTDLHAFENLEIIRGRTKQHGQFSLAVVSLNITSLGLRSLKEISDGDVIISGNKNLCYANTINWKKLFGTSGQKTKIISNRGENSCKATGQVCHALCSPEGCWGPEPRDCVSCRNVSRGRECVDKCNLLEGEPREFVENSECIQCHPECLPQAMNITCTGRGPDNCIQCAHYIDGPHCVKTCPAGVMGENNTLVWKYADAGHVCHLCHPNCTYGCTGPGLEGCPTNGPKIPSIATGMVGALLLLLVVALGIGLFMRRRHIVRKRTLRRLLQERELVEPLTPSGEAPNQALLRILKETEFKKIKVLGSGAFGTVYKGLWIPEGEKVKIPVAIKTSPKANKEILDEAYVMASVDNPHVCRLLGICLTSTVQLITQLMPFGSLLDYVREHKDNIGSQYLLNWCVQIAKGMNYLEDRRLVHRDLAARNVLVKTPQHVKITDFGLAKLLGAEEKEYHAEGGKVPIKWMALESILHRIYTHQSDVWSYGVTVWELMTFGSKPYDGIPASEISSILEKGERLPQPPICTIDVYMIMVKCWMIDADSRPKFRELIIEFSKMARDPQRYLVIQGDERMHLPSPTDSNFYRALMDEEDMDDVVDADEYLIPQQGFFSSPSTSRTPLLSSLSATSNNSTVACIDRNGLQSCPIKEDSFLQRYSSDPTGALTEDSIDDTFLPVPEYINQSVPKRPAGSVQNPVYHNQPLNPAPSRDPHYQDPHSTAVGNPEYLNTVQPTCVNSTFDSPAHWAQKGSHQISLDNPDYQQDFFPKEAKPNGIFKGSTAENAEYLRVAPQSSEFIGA
Experiment: Biochemical EGFR kinase assay (Lance Ultra TR-FRET), double mutant del19/C797S
Details: Km ATP; read-out: IC50 del19/C797S (nM) Km ATP
assay_readout: IC50 (nM)

1. O=S(=O)(C1CC1)n1cc(-c2nccc(Nc3cc(NC4CCN(CCF)CC4)c(-c4ccn(C(F)F)n4)cn3)n2)cn1    28.7
2. O=S(=O)(C1CC1)n1cc(-c2nccc(Nc3cc(OC4CCC(O)C4)c(-c4cnn(C(F)F)c4)cn3)n2)cn1 (centres unmarked)    31.4
3. COCC#Cc1nccc(Nc2cc(NC3CCC(C)(O)CC3)c(-c3ccn(C(F)F)n3)cn2)n1 (centres unmarked)    949
4. Cn1ccc(-c2cnc(Nc3ccnc(-c4cnn(S(=O)(=O)C5CC5)c4)n3)cc2NCC2CCC(C(F)F)CC2)n1 (centres unmarked)    118
5. O=S(=O)(C1CC1)n1cc(-c2nccc(Nc3cc(NC4CCCC(NCCF)C4)c(-c4ccn(C(F)F)n4)cn3)n2)cn1 (centres unmarked)    4.4

----------
Target: EGFR L858R/T790M/C797S (Homo sapiens, UniProt P00533, C797S/L858R/T790M)
Test: Biochemical EGFR kinase assay (Lance Ultra TR-FRET), triple mutant L858R/T790M/C797S
Settings: Km ATP; read-out: IC50 L858R/T790M/C797S (nM) Km ATP
assay_readout: IC50 (nM)

1) O=S(=O)(C1CC1)n1cc(-c2nccc(Nc3cc(N[C@H]4CC[C@@H](O)CC4)c(-c4ccco4)cn3)n2)cn1 [Example 83]    0.3
2) C=CCCS(=O)(=O)n1cc(-c2nccc(Nc3cc(N[C@H]4CC[C@@](C)(O)CC4)c(-c4ccn(C(F)F)n4)cn3)n2)cn1 [Example 117]    0.5
3) Cn1nc(-c2cnc(Nc3ccnc(-c4cnn(CC(F)F)c4)n3)cc2NN2CCC(O)CC2)cc1C(F)(F)F [Example 163]    0.9
4) CN(C)S(=O)(=O)n1cc(-c2nccc(Nc3cc(N[C@H]4CC[C@@](C)(O)CC4)c(-c4cc(C(F)(F)F)n(C)n4)cn3)n2)cn1 [Example 330]    1.1

----------
Molecular target: EGFR wildtype (WT) (Homo sapiens, UniProt P00533)
Sequence (P00533 25-1210): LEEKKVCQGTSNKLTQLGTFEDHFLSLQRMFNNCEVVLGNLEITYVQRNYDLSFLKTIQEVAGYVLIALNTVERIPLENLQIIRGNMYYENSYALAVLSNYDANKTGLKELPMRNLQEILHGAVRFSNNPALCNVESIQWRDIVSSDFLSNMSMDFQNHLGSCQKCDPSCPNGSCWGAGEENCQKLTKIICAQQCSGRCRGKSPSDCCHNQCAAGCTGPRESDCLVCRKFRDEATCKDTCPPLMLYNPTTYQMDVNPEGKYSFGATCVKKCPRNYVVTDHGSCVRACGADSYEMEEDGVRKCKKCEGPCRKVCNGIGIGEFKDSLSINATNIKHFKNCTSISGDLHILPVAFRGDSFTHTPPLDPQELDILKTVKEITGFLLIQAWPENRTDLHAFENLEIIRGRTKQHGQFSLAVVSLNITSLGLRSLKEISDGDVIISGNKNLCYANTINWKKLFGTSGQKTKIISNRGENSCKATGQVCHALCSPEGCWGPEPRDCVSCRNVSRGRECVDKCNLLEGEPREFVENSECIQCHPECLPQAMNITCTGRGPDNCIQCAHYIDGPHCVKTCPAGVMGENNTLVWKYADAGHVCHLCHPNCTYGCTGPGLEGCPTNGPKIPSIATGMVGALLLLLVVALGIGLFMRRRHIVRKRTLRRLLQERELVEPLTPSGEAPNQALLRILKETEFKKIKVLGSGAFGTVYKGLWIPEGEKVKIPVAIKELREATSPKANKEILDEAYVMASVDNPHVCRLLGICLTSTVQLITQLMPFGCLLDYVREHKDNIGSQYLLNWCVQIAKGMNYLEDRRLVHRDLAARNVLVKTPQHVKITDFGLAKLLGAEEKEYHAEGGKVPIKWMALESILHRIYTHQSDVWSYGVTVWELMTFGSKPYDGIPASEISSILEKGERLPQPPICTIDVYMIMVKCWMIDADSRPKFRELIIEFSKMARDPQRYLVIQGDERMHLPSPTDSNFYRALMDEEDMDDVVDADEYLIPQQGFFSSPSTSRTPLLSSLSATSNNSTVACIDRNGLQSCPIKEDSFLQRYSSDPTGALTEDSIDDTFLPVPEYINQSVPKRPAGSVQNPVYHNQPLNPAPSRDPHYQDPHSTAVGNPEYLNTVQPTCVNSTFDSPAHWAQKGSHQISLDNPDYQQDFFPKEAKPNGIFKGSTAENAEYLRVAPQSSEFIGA
Test: Biochemical EGFR kinase assay (Lance Ultra TR-FRET), wildtype
Settings: IC50 WT (nM) 100 μM ATP, 100 μM ATP
Method: Biochemical EGFR kinase assays were conducted using Lance Ultra time-resolved fluorescence resonance energy transfer (TR-FRET) technology from Perkin-Elmer. […] Each kinase reactions were incubated at room temperature for 1 hour and then stopped by the addition of 4 μL of stop solution (10 mM EDTA). […] After 60 minutes incubation at room temperature the LANCE signal was measured on an EnVision Multilabel Reader (Perkin-Elmer). […]
Recorded measurements of IC50, one per entry
assay_readout: IC50 (nM)

1) Cn1ccc(-c2cnc(Nc3ccnc(-c4cnn(S(=O)(=O)C5CC5)c4)n3)cc2NCC2CCC(NCCF)CC2)n1 (stereo not drawn)    1540
2) CN(C)C[C@]1(O)CC[C@@H](Nc2cc(Nc3ccnc(-c4cnn(S(=O)(=O)C5CC5)c4)n3)ncc2-c2ccn(C)n2)CC1    4670

----------
Biological target: EGFR L858R/T790M/C797S (Homo sapiens, UniProt P00533, C797S/L858R/T790M)
Experiment: Biochemical EGFR kinase assay (Lance Ultra TR-FRET), triple mutant L858R/T790M/C797S
Conditions: Km ATP; read-out: IC50 L858R/T790M/C797S (nM) Km ATP
assay_readout: IC50 (nM)

1. O=S(=O)(C1CC1)n1cc(-c2nccc(Nc3cc(OC4CCC(OC(F)F)CC4)c(-c4cnn(C(F)F)c4)cn3)n2)cn1 (stereo not drawn) [Example 70]    3.8
2. Cn1ccc(-c2cnc(Nc3ccnc(-c4cnn(S(=O)(=O)C5CC5)c4)n3)cc2NC[C@H]2C[C@H](CO)C2)n1 [Example 223]    0.1
3. O=S(=O)(C1CC1)n1cc(-c2nccc(Nc3cc(NC4CCN(CC(F)F)CC4)c(-c4ccn(C(F)F)n4)cn3)n2)cn1 [Example 219]    0.5
4. CNC[C@H]1CC[C@H](CNc2cc(Nc3ccnc(-c4cnn(S(=O)(=O)C5CC5)c4)n3)ncc2-c2ccn(C(F)F)n2)CC1 [Example 192]    0.1
5. CC(C)c1cc(-c2cnc(Nc3ccnc(-c4cnn(S(=O)(=O)C5CC5)c4)n3)cc2N[C@H]2CC[C@@](C)(O)CC2)on1 [Example 64]    0.5
6. Cn1ccc(-c2cnc(Nc3ccnc(-c4cnn(S(=O)(=O)C5CC5)c4)n3)cc2NC[C@H]2CC[C@H](O)CC2)n1 [Example 47]    0.1

----------
Target: EGFR del19/T790M/C797S (Homo sapiens, UniProt P00533, C797S/DEL746-750/T790M)
Sequence (P00533 with tags, fused parts or gaps DEL746-750/T790M/C797S): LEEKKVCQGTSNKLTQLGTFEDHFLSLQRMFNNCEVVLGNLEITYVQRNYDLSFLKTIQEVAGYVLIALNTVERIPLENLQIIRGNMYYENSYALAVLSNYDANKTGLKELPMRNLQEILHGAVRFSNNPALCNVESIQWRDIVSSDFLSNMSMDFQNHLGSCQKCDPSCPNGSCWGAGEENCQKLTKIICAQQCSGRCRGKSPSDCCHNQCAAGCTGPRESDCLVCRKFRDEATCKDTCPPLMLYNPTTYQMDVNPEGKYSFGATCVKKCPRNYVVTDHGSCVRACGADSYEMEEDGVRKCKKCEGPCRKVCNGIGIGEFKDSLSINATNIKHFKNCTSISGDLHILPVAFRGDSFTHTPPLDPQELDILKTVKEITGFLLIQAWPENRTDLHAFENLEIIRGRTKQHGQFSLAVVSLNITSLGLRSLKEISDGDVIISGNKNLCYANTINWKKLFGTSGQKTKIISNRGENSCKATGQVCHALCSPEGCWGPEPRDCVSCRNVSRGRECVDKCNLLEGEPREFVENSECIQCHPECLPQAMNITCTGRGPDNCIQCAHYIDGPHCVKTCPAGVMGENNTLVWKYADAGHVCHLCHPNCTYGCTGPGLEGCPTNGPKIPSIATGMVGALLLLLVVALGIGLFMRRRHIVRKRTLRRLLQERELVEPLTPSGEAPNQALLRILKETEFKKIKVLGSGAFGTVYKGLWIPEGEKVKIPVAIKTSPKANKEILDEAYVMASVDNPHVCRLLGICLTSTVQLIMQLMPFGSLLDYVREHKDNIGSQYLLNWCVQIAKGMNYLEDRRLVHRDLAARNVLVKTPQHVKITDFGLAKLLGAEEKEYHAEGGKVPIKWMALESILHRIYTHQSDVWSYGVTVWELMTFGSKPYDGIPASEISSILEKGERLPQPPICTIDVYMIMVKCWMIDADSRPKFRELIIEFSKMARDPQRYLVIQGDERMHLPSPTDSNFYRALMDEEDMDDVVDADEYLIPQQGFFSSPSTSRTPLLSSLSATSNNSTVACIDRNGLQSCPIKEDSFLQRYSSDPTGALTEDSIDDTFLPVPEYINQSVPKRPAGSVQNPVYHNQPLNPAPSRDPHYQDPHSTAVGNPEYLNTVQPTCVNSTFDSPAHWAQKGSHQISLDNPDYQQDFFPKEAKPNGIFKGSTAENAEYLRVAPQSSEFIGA
Assay: Biochemical EGFR kinase assay (Lance Ultra TR-FRET), triple mutant del19/T790M/C797S
Conditions: IC50 del19/T790M/C797S (nM) 100 μM ATP, 100 μM ATP
Description: Biochemical EGFR kinase assays were conducted using Lance Ultra time-resolved fluorescence resonance energy transfer (TR-FRET) technology from Perkin-Elmer. […] Each kinase reactions were incubated at room temperature for 1 hour and then stopped by the addition of 4 μL of stop solution (10 mM EDTA). […] After 60 minutes incubation at room temperature the LANCE signal was measured on an EnVision Multilabel Reader (Perkin-Elmer). […]
assay_readout: IC50

1. Cn1ccc(-c2cnc(Nc3ccnc(-c4cnn(S(=O)(=O)C5CC5)c4)n3)cc2N[C@H]2CC[C@H](CO)OC2)n1    2.1 nM
2. CN1CCN(c2nc(-c3cnc(Nc4ccnc(-c5cnn(S(=O)(=O)C6CC6)c5)n4)cc3N[C@H]3CC[C@@](C)(O)CC3)cs2)CC1    1.7 nM
3. CN(C)CC1(C)CCC(Nc2cc(Nc3ccnc(-c4cnn(S(=O)(=O)C5CC5)c4)n3)ncc2-c2ccn(C(F)F)n2)CC1 (stereo not shown)    0.7 nM
4. CN(C)S(=O)(=O)n1cc(-c2nccc(Nc3cc(N[C@H]4CC[C@@](C)(O)CC4)c(-c4ccn(C(F)F)n4)cn3)n2)cn1    0.3 nM
5. CNC[C@H]1CC[C@H](CNc2cc(Nc3ccnc(-c4cnn(S(=O)(=O)C5CC5)c4)n3)ncc2-c2ccn(C(F)F)n2)CC1    0.4 nM
6. O=S(=O)(C1CC1)n1cc(-c2nccc(Nc3cc(N[C@H]4CC[C@H](O)C4)c(-c4ccn(C(F)F)n4)cn3)n2)cn1    0.9 nM
7. COCCn1cc(-c2nccc(Nc3cc(N[C@H]4CC[C@@](C)(O)CC4)c(-c4ccn(C(F)F)n4)cn3)n2)cn1    0.4 nM
8. CN(C)CCCn1ccc(-c2cnc(Nc3ccnc(-c4cnn(S(=O)(=O)C5CC5)c4)n3)cc2N[C@H]2CC[C@@](C)(O)CC2)n1    0.2 nM
9. O=S(=O)(C1CC1)n1cc(-c2nccc(Nc3cc(NCC4CCC(NCCF)CC4)c(-c4ccn(C(F)F)n4)cn3)n2)cn1 (stereo not shown)    0.4 nM
10. O=S(=O)(C1CC1)n1cc(-c2nccc(Nc3cc(N[C@H]4CC[C@H](CO)OC4)c(-c4ccn(C(F)F)n4)cn3)n2)cn1    3.7 nM
11. CN(C)C[C@H]1CC[C@@H](Nc2cc(Nc3ccnc(-c4cnn(S(=O)(=O)C5CC5)c4)n3)ncc2-c2ccn(C)n2)CC1    0.1 nM
12. CN(C)CCCn1ccc(-c2cnc(Nc3ccnc(-c4cnn(S(=O)(=O)C5CC5)c4)n3)cc2N[C@H]2CC[C@@H](C(C)(C)O)CC2)n1    0.4 nM
13. O=S(=O)(C1CC1)n1cc(-c2nccc(Nc3cc(NC4CC(O)C4)c(-c4ccn(C(F)F)n4)cn3)n2)cn1 (stereo not shown)    0.5 nM
